assayMethodText: yeast display, Sf9 membrane polyspecificity reagent, FACS + sequencing; frameworks hold sequencing errors
experimentalEndpoint: polyreactivity (PSR sort gate)

Consider the worked cases shown below.
1) QVKLVESGGGLVQAGGSLRLSLQPPDSPSTTMLWDGIDRRLAKKGSWLPVFLPSGGTTYADSVKGRFTISRDNAKYTVYLQMNSLKPEDTAVYYCNADLSDVAVTDHDYWGQVTQVTVSS : low polyreactivity
2) QVQLVESGRGLFQAGGSLRLSCAASGSTFSGYAMGWYRPAPGKERELVATITRRGGNTYYADSVKGRFTISRDNAKNTVYLQMNSLKPEDTAVYYCSKDGRVHSPYDYWGQGTQVTVSS : low polyreactivity
3) QVQLVESGGGLVQAGGSLRLSCAASGGTFWYNAMGWYRQAPGKERELVANIRRSGDSTYYADSVKARFTISRDNAKNTVYLQMNSLKPEDTAVYYCAVSYTTYYHRYYYWGQGTQVTVSS : high polyreactivity
4) QVQLVESGGGLVQAGGSLRLSCAASGRTFLNYAMRWNRQAPVKERELVAAITDGDSTNYADSVKGRFTISRDNAKNTVYLQMNSLKPEDTAVYYCNAPSLAYRYYYWGQGTQVTVSS : high polyreactivity

# evaluate next
Qu. State the recorded polyreactivity (PSR sort gate) for this entry: `QVQLVESGGGLVQAGGSLRLSCAASGIIFTTYVMGWYRHAPGTESELVAAISRGGRTYYADSVKGRFTLSRDNAKHTVYLQMNSLKPEDTAVYYCARVAYKGYGEDDYWGQGTQVTVSS`
Ans. high polyreactivity

====

assayMethodText: yeast display, Sf9 membrane polyspecificity reagent, FACS + sequencing; frameworks hold sequencing errors
experimentalEndpoint: polyreactivity (PSR sort gate)

1) QVQLVESGGGLVQAGGSLRLSCAASGRIFNTYAMGWYRQAPAKERELVAAITSSGGSTYYADSVKGRFTISRDNAKNTVYLQMNSLKPEDTAVYYCNAGSLHRRYYYEGDYWGQGTQVTVSS : high polyreactivity
2) QVQLVETGGGLVQAGGSLRLSCAASGTFHWYAMGWYRPAPGKERELVAAITGSGGNTYYADSVKGRFTISRDNAKNTVYLQMNSLKPEDTAVYYCAARIYTWSVQYTGYGYWGQGTQVTVSS : high polyreactivity
3) QVQLVESGGGLVQAGGSLRLSCAASGRIFWYYAMGWYRQAPGKEREFVAAIDWSGGRTYYADSVKGRFTISRDNAKNTVYLQMNSLKPEDTAVYYCAARDRAGRGKSYKPYYYWGQGTQVTVSS : high polyreactivity
4) QDHLVESGGGLVQAGGSLRLSCAAYGRTFESYAMGRYRHAPGKERELVAAISYSGGSTYYADSVKGRFTISRDNAKNTVYLQMNSLKPEDTAVYYCAVRWRYKYDYWGQGTQVTVSS : high polyreactivity

====

assayMethodText: yeast display, Sf9 membrane polyspecificity reagent, FACS + sequencing; frameworks hold sequencing errors
experimentalEndpoint: polyreactivity (PSR sort gate)

Consider the worked cases shown below.
1) QVQLVESGGGLVQAGGSLRLSCAASGFTFARYSMGWYRQAPGKERELVAAISRGGDSTYYADSVKGRFTISRDNAKNTVYLQMNSLKPEDSAVYYCAADISHRGYREYYSWGQGTQVTVSS : high polyreactivity
2) QDQLVESGGGLVQAGGSLRLRCAASGRTFEGNAMGWYRQAAGTEGELVAAMTSGGPTNSADSVKGRFTISRDNAKNTVYFQMNSLKPEDTAVYYCADETRDRSTYFPGQAYDYWGQGTQVTVSS : low polyreactivity
3) QVQLVESGGGLVQAGGSLRLSCASSGSTFRKNTMGWYIPAPGKEREFVAAISRSGGSTYYADSVKGRFTISRDNAKNTVYLQMNSLKPEDTAVYYCAASYYPHQYSYELGDYWGQGTQVTVSS : low polyreactivity
4) QVQLLESGGGLVQAGGSLRLSFASSGSIFHPYAMGWYRQAPGKERELVAAITSGGSTYYADSVKGLFTISRDNAKNTDLLQMNSLNPEDNAVYYCAKDFDIYYSKYDYWGQGTQVTVSS : low polyreactivity
5) QVQLVESGGGLVQAGGSLRLSCAASGSIFYPYAMGWYRQAPGKERELVATISWSGSSTYYADSVKGRVTISRDNAKNTVYSQMNSLKPEDTAVYYCAVRYSVLSNYRYYYWGQGTQVTVSS : low polyreactivity

Okay, here is my list. What is polyreactivity (PSR sort gate) for each of these?
1. QVQLVESGGGLVQAGGSLRLSCAAYGFTFVDFVMGWSIQAPGKERELVAAITTSGTRTSYADSVKGRFTISRDNAKNTVYLQLNSLKPEDTAVYYCNADHKSIYPKYRGRFYYWGQGTQVTVSS
2. QVQLVESGGGLVQAGGSLRLSCAASGSIFLIYAMAWYRQAPGKERELVAAISSGGSTYYADSVKGRFTISRDNAKNTVYLQMNSLKPEDTAVYYCATYSTSVAYHLYYWGQGTQVTVSS
3. QVQLVESGGGLVQAGGSLRLSCAASGFTLYNNAMGWYRQAPGKERELVARISGSGGSTYYADSVKGRFTISRDNAKNTVYLQMNSLKPEDTAVYYCNARATYVPTYGYTHWYNYWGQGTQVTVSS
4. QVQLVESGGGLVQAGGSLRLICAASGSTFLGYAMGWYRQAPGKERELVAAISSGGGTYADSVKGRFTISRDNAKNSVYLQMNSLKPEDTAVYYCNADYSTPYRMDYWGQGTQVTVSS
5. QVHLVESGGGLVQAGGSLRLSCAASGSIFGGYGMGWYRQAPGKEREMVAAITSGSSTYYADSVKGPFTISRDNAKNSVYFQLNSLKPEDTAVYYCAARPYPHSAYEGDYWGRGTQVTVSS
6. QVQLVESGGGLVQAGGSLRLSCAASGFIFWLNAMGWYRQAPGKERELVAAISIGGRTNYADSVKGRFTISRDNAKNTVYLQMNSLKPEDTAVYYCNKDYRSVYKGRGFDYWGQGTQVTVSS

Ans.
["high polyreactivity", "low polyreactivity", "low polyreactivity", "low polyreactivity", "low polyreactivity", "low polyreactivity"]
